# System: HLA-A*24
# test_description: MHC binding assay, UV-ligand exchange with beta2m ELISA (peptide exchange yield)
# Design: species or system human
# assay_setup: binding to HLA-A*24
measure: Peptide exchange (MHC class I binding score, peptide exchange yield)

Example entries and their recorded answers appear below.
1. 221 (RYSTGLAGNLL; listed as Homo sapiens) [compound 221] | +++ (50%-75% = +++)
2. 182 (IYQLDTASI; listed as Homo sapiens) [compound 182] | +++ (50%-75% = +++)
3. 289 (KYPVEWAKF; listed as Homo sapiens) [compound 289] | ++++ (> = 75% = ++++)
4. 169 (AYTLIAPNI; listed as Homo sapiens) [compound 169] | +++ (50%-75% = +++)
5. 159 (LYNKGFIYL; listed as Homo sapiens) [compound 159] | ++++ (> = 75% = ++++)
6. 168 (KYQDILETI; listed as Homo sapiens) [compound 168] | ++++ (> = 75% = ++++)

Go through the items and report each one's Peptide exchange (MHC class I binding score, peptide exchange yield).
1. 271 (LYHDIFSRL; listed as Homo sapiens) [compound 271]
2. 280 (RYPDNLKHLYL; listed as Homo sapiens) [compound 280]

Ans.
1: ++++ (> = 75% = ++++); 2: ++++ (> = 75% = ++++)

====

# target: HLA-A*02 (Homo sapiens, UniProt P04439, D140Y/D185E/D98H/E176V/E277Q/G131W/G231S/I119V/I121R/I166T/I218V/L300P/N151K/N90K/P208A/P217A/Q86G/Q94H/R138H/R169H)
# Construct: made in house
# test_description: MHC binding assay, UV-ligand exchange with beta2m ELISA (peptide exchange yield)
# assay_setup: binding to HLA-A*02
measure: Peptide exchange (MHC class I binding score, peptide exchange yield)

1) 64 (SLFPDSLIV; listed as Homo sapiens) [compound 64] | ++ (20%-49% = ++)
2) 48 (QVIEDSTGV; listed as Homo sapiens) [compound 48] | ++ (20%-49% = ++)
3) 136 (FLFGGVLMTL; listed as Homo sapiens) [compound 136] | ++ (20%-49% = ++)

====

# Tested on: HLA-A*24
# test_description: MHC binding assay, UV-ligand exchange with beta2m ELISA (peptide exchange yield)
# Parameters: species or system human
# assay_setup: binding to HLA-A*24
measure: Peptide exchange (MHC class I binding score, peptide exchange yield)

Example entries and their recorded answers appear below.
1) 166 (YYVESGKLF; listed as Homo sapiens) [compound 166] | ++++ (> = 75% = ++++)
2) 225 (YYVYIMNHL; listed as Homo sapiens) [compound 225] | +++ (50%-75% = +++)
3) 174 (VYVGGGQIIHL; listed as Homo sapiens) [compound 174] | +++ (50%-75% = +++)
4) 175 (YYEVHKELF; listed as Homo sapiens) [compound 175] | ++++ (> = 75% = ++++)
5) 228 (KYTSWYVAL; listed as Homo sapiens) [compound 228] | ++++ (> = 75% = ++++)
6) 205 (VHIPEVYLI; listed as Homo sapiens) [compound 205] | +++ (50%-75% = +++)
7) 180 (IYDDSFIRPVTF; listed as Homo sapiens) [compound 180] | +++ (50%-75% = +++)
8) 269 (YFIDSTNLKTHF; listed as Homo sapiens) [compound 269] | +++ (50%-75% = +++)

Go through the items and report each one's Peptide exchange (MHC class I binding score, peptide exchange yield).
1. 287 (LYITEPKTI; listed as Homo sapiens) [compound 287]
2. 214 (LYLKLWNLI; listed as Homo sapiens) [compound 214]

Ans.
["+++ (50%-75% = +++)", "+++ (50%-75% = +++)"]
